- system-under-test: recombinant thioredoxin reductase 1 (TrxR1) (Homo sapiens, UniProt Q16881)
- Sequence (Q16881 151-649 limits assumed): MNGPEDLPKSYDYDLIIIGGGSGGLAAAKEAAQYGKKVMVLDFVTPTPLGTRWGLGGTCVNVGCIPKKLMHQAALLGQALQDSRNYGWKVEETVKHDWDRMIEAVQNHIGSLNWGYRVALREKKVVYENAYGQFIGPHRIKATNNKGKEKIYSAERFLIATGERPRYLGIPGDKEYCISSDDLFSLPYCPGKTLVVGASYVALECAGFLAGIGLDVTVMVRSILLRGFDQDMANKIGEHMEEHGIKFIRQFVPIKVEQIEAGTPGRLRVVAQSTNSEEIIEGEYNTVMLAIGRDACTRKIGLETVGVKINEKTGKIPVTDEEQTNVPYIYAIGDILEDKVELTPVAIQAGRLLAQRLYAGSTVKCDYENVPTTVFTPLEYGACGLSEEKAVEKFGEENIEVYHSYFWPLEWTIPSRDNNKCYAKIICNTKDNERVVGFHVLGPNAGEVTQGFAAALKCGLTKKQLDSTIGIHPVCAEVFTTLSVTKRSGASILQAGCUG
- test-name: Inhibition of recombinant TrxR1 (DTNB assay)
- Type: biochemical
- recorded-conditions: Biological Example 1; 15 nM TrxR1, 15 minutes incubation; read-out: TrxR inhibition (IC50)
Where a name gives a salt, the structure may show the parent alone.
// boundary case: IC50 equal to 200 nM maps to label 0; strictly smaller maps to label 1

Look over these answered cases.
O=[N+]([O-])c1cccnc1S(=O)(=O)c1ccccc1 [Example 2, Trifluoroacetate]; label 1
Cc1ccc(S(=O)(=O)c2ncccc2[N+](=O)[O-])cc1 [Example 3, 3-Nitro-2-tosylpyridine Hydrochloride]; label 0
COc1ccc([N+](=O)[O-])c(S(=O)(=O)c2ccc(Cl)cc2)n1 [Example 1, Hydrochloride]; label 1
O=[N+]([O-])c1cccnc1S(=O)(=O)c1ccc(Cl)cc1 [Example 5, Trifluoroacetate]; label 1

Next compound, please.
Enquiry: Item COc1ccc([N+](=O)[O-])c(S(=O)(=O)c2ccccc2)n1 [Example 4, Trifluoroacetate] : IC50 beneath 200 nM, strictly?
Return: label 1

---

Provide the recorded pIC50 for the entries that follow.
- system-under-test: gluthathione reductase (GR) (Homo sapiens)
- Sequence (P00390 44-522): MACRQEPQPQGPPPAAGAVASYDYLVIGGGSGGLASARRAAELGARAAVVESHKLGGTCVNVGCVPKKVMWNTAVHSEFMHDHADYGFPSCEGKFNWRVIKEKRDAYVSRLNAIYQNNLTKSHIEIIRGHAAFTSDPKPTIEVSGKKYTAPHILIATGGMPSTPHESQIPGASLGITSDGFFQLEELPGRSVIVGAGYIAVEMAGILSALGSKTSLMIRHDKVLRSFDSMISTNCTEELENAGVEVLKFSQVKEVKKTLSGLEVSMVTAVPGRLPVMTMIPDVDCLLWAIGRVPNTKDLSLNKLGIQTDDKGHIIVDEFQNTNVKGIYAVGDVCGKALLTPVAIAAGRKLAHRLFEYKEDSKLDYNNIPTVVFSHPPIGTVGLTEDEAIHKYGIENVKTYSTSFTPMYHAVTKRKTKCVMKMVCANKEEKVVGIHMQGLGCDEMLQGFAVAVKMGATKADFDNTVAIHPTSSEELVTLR
- test-name: Inhibition of recombinant GR (GSSG assay)
- Type: biochemical
- recorded-conditions: Biological Example 1; 2 nM GR, 15 minutes incubation
Structures can show the parent of a compound that is named as a salt.
Numbers only, as −log10 of the molar value.

COc1ccc([N+](=O)[O-])c(S(=O)(=O)c2ccccc2)n1 [Example 4, Trifluoroacetate]; 4.60

In the following, a different molecule is considered.
Note to self: pIC50 of O=[N+]([O-])c1cccnc1S(=O)(=O)c1ccc(Cl)cc1 [Example 5, Trifluoroacetate] with gluthathione reductase (GR) (Homo sapiens) was 4.32

---

- system-under-test: UniProtKB P00390
- test-name: Inhibition of recombinant GR (GSSG assay)
- Format: biochemical
- recorded-conditions: Biological Example 4
Where a name gives a salt, the structure may show the parent alone.
property: IC50

COc1ccc(S(=O)(=O)c2nc(OC)ccc2[N+](=O)[O-])cc1 [Example 7]; > 100 µM

Lab note: each compound below needs its IC50 filled in.
1. O=[N+]([O-])c1ccc(Cl)nc1S(=O)(=O)c1ccc(Cl)cc1 [Example 8]
2. COc1ccc([N+](=O)[O-])c(S(=O)(=O)c2ccccc2)n1 [Example 4, Trifluoroacetate]
3. COc1ccc(S(=O)(=O)c2nc(N(C)C)ccc2[N+](=O)[O-])cc1 [Example 12]
4. Cc1ccc(S(=O)(=O)c2nc(N(C)C)ccc2[N+](=O)[O-])cc1 [Example 15]
5. O=[N+]([O-])c1ccc(Cl)nc1S(=O)(=O)c1ccccc1 [Example 10]
6. O=[N+]([O-])c1cccnc1S(=O)(=O)c1ccccc1 [Example 2, Trifluoroacetate]
7. CN(C)c1ccc([N+](=O)[O-])c(S(=O)(=O)c2ccccc2)n1 [Example 14]

Return:
3.57 µM
30.8 µM
> 100 µM
> 100 µM
14.5 µM
> 100 µM
> 100 µM

---

- system-under-test: UniProt P00390
- test-name: Inhibition of recombinant GR (GSSG assay)
- Format: biochemical
- recorded-conditions: Biological Example 4
Where a name gives a salt, the structure may show the parent alone.
property: pIC50
Answers are plain numbers, as −log10 of the molar value.

Below, each entry is followed by its recorded pIC50 result.
O=[N+]([O-])c1cccnc1S(=O)(=O)c1ccc(Cl)cc1 [Example 5, Trifluoroacetate]; 4.03
COc1ccc(S(=O)(=O)c2nc(Cl)ccc2[N+](=O)[O-])cc1 [Example 9]; 4.38

Consider now this further compound.
The compound identified as Cc1ccc(S(=O)(=O)c2nc(Cl)ccc2[N+](=O)[O-])cc1 [Example 11, 6-Chloro-3-nitro-2-tosylpyridine] registered its pIC50 at 4.63
